Below, each of the binders is paired with its reported EC50 value.
Biological target: T1, mesothelin on cells (endogenous on SN12C, OVCAR3, SW1990); HEK293 cells expressing cell-surface human … (human, UniProt Q13421 296-598)
T1 construct: whole, on cells; also called cell-surface MSLN
T1 sequence (Q13421 other isoform, or with tags, fused parts or gaps limits assumed): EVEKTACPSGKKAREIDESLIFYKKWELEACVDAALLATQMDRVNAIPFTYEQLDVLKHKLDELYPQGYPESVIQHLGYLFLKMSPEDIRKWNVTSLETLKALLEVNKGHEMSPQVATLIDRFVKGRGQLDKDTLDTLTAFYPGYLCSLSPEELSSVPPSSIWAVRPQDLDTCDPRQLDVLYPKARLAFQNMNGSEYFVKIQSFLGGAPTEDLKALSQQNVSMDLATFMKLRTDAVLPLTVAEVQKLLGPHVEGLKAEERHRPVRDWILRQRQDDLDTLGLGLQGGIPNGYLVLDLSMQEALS
Assay: FACS, OVCAR3 (CA125+)
Procedure: The binding of anti-mesothelin affinity matured variants was measured by FACS on the ovarian cancer cell line OVCAR3, the pancreatic cancer cell line SW1990, and the renal cancer cell line SN12C. Both OVCAR3 and SW1990 express CA125, but CA125 expression on SN12C cells was not detected.
Quick reminder: number only, in µg/mL, skip the unit.

INSERT INTO assay_data (binder, observation_type, observed_measurement) VALUES
  ('HuAM14 (antibody, V domains shown, fully human antibody) VH: EVQLVQSGAEVKKPGASVKVSCKASGDTFKRYYMHWVRQAPGQGLEWMGIINPSGVSTTYAQKFQGRVTMTRDTSTSTVYMELSSLRSEDTAVYYCAEVRGSGFNYFGMDVWGQGTLVTVSS VL: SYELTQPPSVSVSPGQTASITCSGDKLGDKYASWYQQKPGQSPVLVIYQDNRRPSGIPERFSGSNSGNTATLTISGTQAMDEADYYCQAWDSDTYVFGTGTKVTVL', 'EC50', 0.7),
  ('HuAb17 (antibody, V domains shown, fully human antibody) VH: EVQLVQSGAEVKEPGASVKVSCKASGDTFNRYYVHWARQAPGQGLEWMGIINPSGVSTTYAQKFQGRVTMTRDTPTNTVYMELGSLRPEDTAVYFCAESRGSGYNYFAMDVWGQGTLVTVSS VL: SYELTQPPSVSVSPGQTADITCSGDKLGDKYASWYQQKPGQSPVLVIYQDNRRPSGIPERFSGSNSGNTATLTISGTQAMDEADYYCQAWDSDTYVFGPGTKVTVL', 'EC50', 2.9),
  ('HuAM13 (antibody, V domains shown, fully human antibody) VH: EVQLVQSGAEVKKPGASVKVSCKASGDTFNRYYVQWVRQAPGQGLEWMGIINPSGVSTTYAQKFQGRVTMTRDTSTSTVYMELSSLRSEDTAVYYCAETRGSGFNYFGMDVWGQGTLVTVSS VL: SYELTQPPSVSVSPGQTASITCSGDKLGDKYASWYQQKPGQSPVLVIYQDNRRPSGIPERFSGSNSGNTATLTISGTQAMDEADYYCQVWDSDTYVFGTGTKVTVL', 'EC50', 0.7),
  ('HuAM12 (antibody, V domains shown, fully human antibody) VH: EVQLVQSGAEVKKPGASVKVSCKASGDTFHRYYVHWVRQAPGQGLEWMGIINPSGVSTTYAQKFQGRVTMTRDTSTSTVYMELSSLRSEDTAVYYCAEVRGSGFNYFGMDVWGQGTLVTVSS VL: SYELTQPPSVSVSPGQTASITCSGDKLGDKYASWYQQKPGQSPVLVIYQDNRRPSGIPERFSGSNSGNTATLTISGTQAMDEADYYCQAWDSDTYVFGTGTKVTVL', 'EC50', 0.8);

Task: Quick one: EC50 of HuAM16 (antibody, V domains shown, fully human antibody) VH: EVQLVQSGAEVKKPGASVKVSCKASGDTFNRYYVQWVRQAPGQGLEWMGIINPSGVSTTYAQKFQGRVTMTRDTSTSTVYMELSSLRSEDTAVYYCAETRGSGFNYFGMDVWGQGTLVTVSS VL: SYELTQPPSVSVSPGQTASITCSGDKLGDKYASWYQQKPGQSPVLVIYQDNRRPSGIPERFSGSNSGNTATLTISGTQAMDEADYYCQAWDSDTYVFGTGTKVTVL ?
Result: 0.6

Task: Quick one: EC50 of HuAM11 (antibody, V domains shown, fully human antibody) VH: EVQLVQSGAEVKKPGASVKVSCKASGDTFKRYYMHWVRQAPGQGLEWMGIINPSGVSTTYAQKFQGRVTMTRDTSTSTVYMELSSLRSEDTAVYYCAEVRGSGFNYFGMDVWGQGTLVTVSS VL: SYELTQPPSVSVSPGQTASITCSGDKLGDKYASWYQQKPGQSPVLVIYQDNRRPSGIPERFSGSNSGNTATLTISGTQAMDEADYYCQVWDSDTYVFGTGTKVTVL ?
Result: 0.7

Task: Quick one: EC50 of HuAM15 (antibody, V domains shown, fully human antibody) VH: EVQLVQSGAEVKKPGASVKVSCKASGDTFKRYYVHWVRQAPGQGLEWMGIINPSGVSTTYAQKFQGRVTMTRDTSTSTVYMELSSLRSEDTAVYYCAEVRGSGFNYFGMDVWGQGTLVTVSS VL: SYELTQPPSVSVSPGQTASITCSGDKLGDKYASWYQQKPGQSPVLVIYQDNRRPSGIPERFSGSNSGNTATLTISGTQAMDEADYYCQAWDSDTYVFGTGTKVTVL ?
Result: 0.7

Task: Quick one: EC50 of HuAM5 (antibody, V domains shown, fully human antibody) VH: EVQLVQSGAEVKKPGASVKVSCKASGDTFNRYYVHWVRQAPGQGLEWMGIINPSGVSTTYAQKFQGRVTMTRDTSTSTVYMELSSLRSEDTAVYYCAEVRGSGYNYFAMDVWGQGTLVTVSS VL: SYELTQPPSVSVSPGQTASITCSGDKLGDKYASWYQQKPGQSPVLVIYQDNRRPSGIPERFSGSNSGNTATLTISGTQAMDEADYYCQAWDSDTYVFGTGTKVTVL ?
Result: 0.7
